Consider the following compounds; for each one, report its normalized growth.
experiment: chemical genetic growth profiling, strain panel (AID 1159580);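 further: tested at 20 µM; growth read once vehicle control cultures reached saturation at 30 °C; 1 = growth at the plate median or of vehicle wells; lower values mean less growth of the strain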; details: S. cerevisiae deletion strains, growth OD, locus YEL061C, strain CIN8, active compounds read low
The whole screen tested about 5,500 compounds, of which about 2,000 (36%) were called active. Not shown: some 18% with an inconclusive outcome. This is one part of the list.
The reply should be a number, written without any unit.

Any idea what its normalized growth is? The compound is "CC(=O)Nc1ccc(OC(=O)c2ccccc2O)cc1" 0.98

Any idea what its normalized growth is? The compound is "Nc1ccc(C(=O)Oc2ccccc2)c(O)c1" 0.938

Any idea what its normalized growth is? The compound is "CC(=O)Nc1ccc(O)cc1" 0.971

Any idea what its normalized growth is? The compound is Nc1ccc(C(=O)O)c(O)c1 (tested in a mixture with another compound) 0.994

Any idea what its normalized growth is? The compound is "NCCc1ccc(O)cc1" 1

Any idea what its normalized growth is? The compound is "CC(=O)Nc1cccc(O)c1" 1.01

Any idea what its normalized growth is? The compound is "CCCCC1C(=O)N(c2ccccc2)N(c2ccccc2)C1=O" 0.981

----------
Consider the following compounds; for each one, report its normalized growth.
assay: chemical genetic growth profiling, strain panel (AID 1159580); settings: S. cerevisiae deletion strains, growth OD, locus YNL322C, strain KRE1, active compounds read low
Hit rate of the full screen: of about 5,500 compounds, about 2,000 (36%) were called active. Roughly 18% stayed inconclusive and do not appear here. This is one part of the list.
The reply should be a number, written without any unit.

Any idea what its normalized growth is? The compound is "O=C(NNC(=O)c1ccccc1[N+](=O)[O-])c1ccc(Cl)cc1" 1.01

Any idea what its normalized growth is? The compound is "CCOC(=O)CSc1nnc(-c2cc(C(C)(C)C)nn2Cc2cccc(C)c2)n1C1CCCCC1" 0.994

Any idea what its normalized growth is? The compound is Cn1nnnc1SCC1=C(C(=O)O)N2C(=O)C(NC(=O)C(O)c3ccccc3)C2SC1 (centres undefined) 1.02

Any idea what its normalized growth is? The compound is "O=c1oc2ccccc2c(O)c1Cc1c(O)c2ccccc2oc1=O" 0.987

Any idea what its normalized growth is? The compound is CSc1ccc2c(c1)C(N1CCN(C)CC1)Cc1ccccc1S2 (centres undefined) 0.773

Any idea what its normalized growth is? The compound is "Cc1ccc(C(=O)c2ccccc2[N+](=O)[O-])cc1" 0.997

Any idea what its normalized growth is? The compound is "CCN(CC)CCNc1ccc(CO)c2sc3ccccc3c(=O)c12" 1.01

Any idea what its normalized growth is? The compound is CC(=O)CC(c1ccccc1)c1c(O)c2ccccc2oc1=O (centres undefined) 1.02

Any idea what its normalized growth is? The compound is "Cc1c(C)c(C)c(CO)c(C)c1C" 1.01

Any idea what its normalized growth is? The compound is "O=C(/C=C/c1ccccc1)c1ccc(O)cc1" 0.77

Any idea what its normalized growth is? The compound is "Cc1nc2c(OCc3ccccc3)cccn2c1CC#N" 1.01

Any idea what its normalized growth is? The compound is "O=c1c2ccccc2oc2ccc(O)cc12" 0.948

Any idea what its normalized growth is? The compound is "C[N+]1(CCCCC[N+]2(C)CCCC2)CCCC1" 1

Any idea what its normalized growth is? The compound is "COC(=O)c1ccc(Cl)cc1N(Cc1ccccc1)S(C)(=O)=O" 0.985

Any idea what its normalized growth is? The compound is "O=C(N/N=C\c1ccccc1Cl)c1cccnc1" 1

Any idea what its normalized growth is? The compound is CN1CCN2c3ccccc3Cc3ccccc3C2C1 (centres undefined) 1.02

Any idea what its normalized growth is? The compound is "COc1cc(NC(=O)NS(=O)(=O)c2ccc(C)cc2)cc(C(F)(F)F)c1" 0.986

Any idea what its normalized growth is? The compound is CC(=O)O[C@@H]1CC2C(C)(C)[C@H](O)C[C@H](O)[C@]2(C)C2CC[C@@]3(C)[C@H](c4ccoc4)OC(=O)[C@H]4O[C@]43[C@@]21C (some centres undefined) 0.999

Any idea what its normalized growth is? The compound is "O=c1[nH]c(=O)n([C@H]2C[C@H](O)[C@@H](CO)O2)cc1/C=C/Br" 0.999

Any idea what its normalized growth is? The compound is "CCOC(=O)c1ccc2oc3ccc(O)cc3c(=O)c2c1" 1.01

Any idea what its normalized growth is? The compound is "CCN1CN=C(SCc2ccc(C)cc2)NC1" 0.994

Any idea what its normalized growth is? The compound is "Cc1ccc(OCC(=O)NN)c2c1CCC2" 0.997

Any idea what its normalized growth is? The compound is "O=C(Nc1ccccc1SCc1cccc(C(F)(F)F)c1)c1c(F)cccc1Cl" 1.02

Any idea what its normalized growth is? The compound is "O=C(O)c1coc2ccccc2c1=O" 0.994

----------
assay: chemical genetic growth profiling, strain panel (AID 1159580);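 further: tested at 20 µM; growth read once vehicle control cultures reached saturation at 30 °C; 1 = growth at the plate median or of vehicle wells; lower values mean less growth of the strain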; details: S. cerevisiae deletion strains, growth OD, locus YOR083W, strain WHI5 (second series), active compounds read low
About 2,000 (36%) of roughly 5,500 compounds were called active. Another 18% or so got no clear call; they are omitted. Some of the results follow.
hey, just use Y if measured normalized growth is less than 1, otherwise N

Quick check: normalized growth of "Cc1nc2c(OCc3ccccc3)cccn2c1CC#N" under 1? Y

Quick check: normalized growth of C=CCc1ccccc1OCC(O)CN[C@]1(C)CCC[C@H](C(C)(C)NC(=O)CBr)C1 (stereo partly specified) under 1? N

Quick check: normalized growth of "C[n+]1cc2c3c(ccc2c2ccc4cc5c(cc4c21)OCO5)OCO3" under 1? Y

Quick check: normalized growth of "CN1C[C@@H](CS(=O)(=O)N(C)C)C[C@@H]2c3cccc4c3c(cn4C)C[C@H]21" under 1? N

Quick check: normalized growth of O=C(O)C1CN(CCCP(=O)(O)O)CCN1 (stereo unspecified) under 1? N

----------
Consider the following compounds; for each one, report its normalized growth.
experiment: chemical genetic growth profiling, strain panel (AID 1159580);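 further: tested at 20 µM; growth read once vehicle control cultures reached saturation at 30 °C; 1 = growth at the plate median or of vehicle wells; lower values mean less growth of the strain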; conditions: S. cerevisiae deletion strains, growth OD, locus YBR229C, strain ROT2, active compounds read low
The whole screen tested about 5,500 compounds, of which about 2,000 (36%) were called active. Inconclusive results (about 18%) are left out. The list shows a part of the results.
The reply should be a number, written without any unit.

Any idea what its normalized growth is? The compound is "COc1cc([C@@H]2c3cc4c(cc3[C@H](OC(C)=O)[C@H]3COC(=O)[C@H]23)OCO4)cc(OC)c1OC" 0.99

Any idea what its normalized growth is? The compound is "O=C(N/N=C\c1ccccc1Cl)N/N=C\c1ccccc1Cl" 0.989

Any idea what its normalized growth is? The compound is CC1(C)O[C@@H]2CC3C4CCC5=CC(=O)C=C[C@]5(C)[C@@]4(F)[C@@H](O)C[C@]3(C)[C@]2(C(=O)CO)O1 (stereo partly specified) 1.01

Any idea what its normalized growth is? The compound is C#CCOS(=O)OC1CCCCC1Oc1ccc(C(C)(C)C)cc1 (stereo unspecified) 1.02

Any idea what its normalized growth is? The compound is CCOC(=O)C1C(C=C(C)C)C1(C)C (stereo unspecified) 1

Any idea what its normalized growth is? The compound is "COc1c(O)cccc1O" 1.01

----------
experiment: chemical genetic growth profiling, strain panel (AID 1159580);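 further: tested at 20 µM; growth read once vehicle control cultures reached saturation at 30 °C; 1 = growth at the plate median or of vehicle wells; lower values mean less growth of the strain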; conditions: S. cerevisiae deletion strains, growth OD, locus YGL253W, strain hxk2, active compounds read low
The campaign covered roughly 5,500 compounds. About 2,000 (36%) were called active. Roughly 18% stayed inconclusive and do not appear here. This is one part of the list.
reported.property: normalized growth
The reply should be a number, written without any unit.

Any idea what its normalized growth is? The compound is CN1CCOC(c2ccccc2)c2ccccc2C1 (stereo unspecified) 0.963

Any idea what its normalized growth is? The compound is "Nc1nnc(-c2cccc(Cl)c2Cl)c(N)n1" 1.02

Any idea what its normalized growth is? The compound is "COc1cccc(-c2cc(=O)c3ccc(OC)cc3o2)c1" 0.903

Any idea what its normalized growth is? The compound is CN1CCN2c3ccccc3Cc3ccccc3C2C1 (stereo unspecified) 1.01

Any idea what its normalized growth is? The compound is C=CCc1ccccc1OCC(O)CNC(C)C (stereo unspecified) 1

Any idea what its normalized growth is? The compound is "COC(=O)C1=C(C)NC(C)=C(C(=O)OC)C1c1ccccc1[N+](=O)[O-]" 0.878

Any idea what its normalized growth is? The compound is COC(=O)C1=C(C)NC(C)=C(C(=O)OCC(C)C)C1c1ccccc1[N+](=O)[O-] (stereo unspecified) 0.303

Any idea what its normalized growth is? The compound is "CC(=O)O.CC(=O)O.[Cd]" 0.825

Any idea what its normalized growth is? The compound is CN(C)C(=O)Oc1cc(OC(=O)N(C)C)cc(C(O)CNC(C)(C)C)c1 (stereo unspecified) 1.03

Any idea what its normalized growth is? The compound is "COc1cc2c3cc1Oc1cc(ccc1O)C[C@@H]1c4c(cc(OC)c(O)c4Oc4ccc(cc4)C[C@@H]3N(C)CC2)CC[N+]1(C)C" 0.978

Any idea what its normalized growth is? The compound is "O=c1cc(-c2cccc(O)c2)oc2ccc(O)cc12" 0.952
